- assay-info: yeast V-ATPase proton transport modulators, S. cerevisiae, pHLuorin, HTS validation (AID 504600);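 note: plate controls were DMSO for no effect and reference compound for full effect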
- run-parameters: S. cerevisiae pHLuorin cytosolic pH, at 10 µM, active compounds read high
The source made the active and inactive calls. Cut-off read from the data, not from the text of the source: active = response above about 15%; inactive = the rest.
Known response of a selection of compounds
measure: response

compound | measure | result
CNCCCC12CCC(c3ccccc31)c1ccccc12 | response | 2% (inactive)
O=C1NCC2=C1C(c1ccccc1)Nc1ccccc1N2 (stereo unspecified) | response | -0.53% (inactive)
CCOc1ccc(C(=O)Nc2ccc(N3CCN(C(C)=O)CC3)cc2)cc1[N+](=O)[O-] | response | 0.55% (inactive)
COc1ccc(Cc2nc(-c3ccc(Br)cc3)no2)cc1 | response | -2.85% (inactive)
COc1cc2c(cc1OC)-c1cc(OCc3ccccc3Cl)nc(=O)n1CC2 | response | -7% (inactive)
COc1ccc(OCC(=O)N2c3ccc(C)cc3C3CN(C)CCC32)cc1 (stereo unspecified) | response | -0.64% (inactive)
CC(=O)c1c(C)[nH]c(C(=O)OCc2ccccc2)c1C | response | 0.36% (inactive)
CCN(Cc1ccncc1)Cc1nc(Cc2ccccc2Cl)no1 | response | 2.76% (inactive)
O=C(O)CCn1c(=S)n(CCC(=O)O)c2ccccc21 | response | -0.83% (inactive)
COCCCC/C(=N\OCCN)c1ccc(C(F)(F)F)cc1 | response | 1.1% (inactive)
CC(C)(C)C(=O)NC(=S)Nc1sc2c(c1C(N)=O)CCC2 | response | -1.19% (inactive)

====

Listed here: items and their measured GFP response vs DMSO.
- assay-info: modulators of LAP4-GFP expression in yeast, primary screen, S. cerevisiae, multiplex flow cytometry (AID 1873)
- run-parameters: 3 h, at 10 µM, active compounds read high
Results filed as inconclusive are left out.

compound | result-unit | GFP response vs DMSO
C[C@]12CC[C@H]3C(=CCc4cc(O)ccc43)[C@@H]1CCC2=O | % | 110
N=C(N)c1ccc(OCCCCCOc2ccc(C(=N)N)cc2)cc1 | % | 110
CO[C@@H]1O[C@@H]2COC(c3ccccc3)O[C@@H]2[C@@H](OC)[C@@H]1O (stereo not given in full) | % | 96.4
Cc1ccccc1-c1coc2cc(O)ccc2c1=O | % | 116
Cc1cc(C)c2c(CCl)cc(=O)oc2c1 | % | 127
COc1ccc2c(c1)CC[C@@H]1[C@@H]2CC[C@]2(C)C(=O)CC[C@@H]12 | % | 133
COc1ccc(-c2cc3cc(OC)c(OC)cc3c(C)n2)cc1 | % | 90.3
C[N+](C)(C)CCOP(=O)(O)OP(=O)([O-])OC[C@H]1O[C@@H](n2ccc(N)nc2=O)[C@H](O)[C@@H]1O | % | 82
CC#C[C@]1(O)CC[C@H]2[C@@H]3CCC4=CC(=O)CCC4=C3[C@@H](c3ccc(N(C)C)cc3)C[C@@]21C | % | 87.3
COc1ccc(CCN(C)CC(=O)Nc2cc(C)nc3ccccc23)cc1OC | % | 94

====

- assay-info: yeast V-ATPase proton transport modulators, S. cerevisiae, pHLuorin, HTS validation (AID 504600);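 note: plate controls were DMSO for no effect and reference compound for full effect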
- run-parameters: S. cerevisiae pHLuorin cytosolic pH, at 10 µM, active compounds read high
Active and inactive are the calls of the source. Cut-off read from the data, not from the text of the source: active = response above about 15%; inactive = the rest.
Below, each entry is listed with its recorded response.
measure: response

compound | result
CC(C)(C)[C@]1(O)CCN2C[C@H]3c4ccccc4CCc4cccc(c43)[C@@H]2C1 | 1.63% (inactive)
CCCC(=O)Nc1ccc(OCC(O)CNC(C)C)c(C(C)=O)c1 (stereo unspecified) | -0.74% (inactive)
O=c1nc2cccc3c2=c(/c1=C(\O)c1ccccc1)c1ccccc1c3=O | 1.67% (inactive)
COc1cc2c(cc1OC)C(c1cc(OC)c(OC)c(OC)c1)NCC2 (stereo unspecified) | -3.82% (inactive)
CN1CCN(C2=Nc3cc(Cl)ccc3Nc3ccccc32)CC1 | 6.59% (inactive)
COc1cc(OC)c(C2C(C#N)=C(N)OC3=C2C(=O)CC(C)(C)C3)cc1OC (stereo unspecified) | -1.86% (inactive)
COc1ccc(C(=O)OCc2cc3cccc(C)c3[nH]c2=O)cc1 | -29% (inactive)
Nc1cccc(C(=O)O)c1 | 3.11% (inactive)
COc1ccc(S(=O)(=O)NC(Cc2cnc[nH]2)C(=O)O)cc1 (stereo unspecified) | 1.95% (inactive)
CCn1c2ccccc2c2cc(CC(N)=O)ccc21 | -10.1% (inactive)
C=CCn1c(SCC(=O)NC2CCCCC2)nc2ccccc2c1=O | 11.4% (inactive)

====

Entries annotated with measured aptamer binding inhibition
- system: Beta-adrenergic receptor kinase 1 (Homo sapiens) (UniProt P25098)
- Sequence (P25098 whole entry, looked up): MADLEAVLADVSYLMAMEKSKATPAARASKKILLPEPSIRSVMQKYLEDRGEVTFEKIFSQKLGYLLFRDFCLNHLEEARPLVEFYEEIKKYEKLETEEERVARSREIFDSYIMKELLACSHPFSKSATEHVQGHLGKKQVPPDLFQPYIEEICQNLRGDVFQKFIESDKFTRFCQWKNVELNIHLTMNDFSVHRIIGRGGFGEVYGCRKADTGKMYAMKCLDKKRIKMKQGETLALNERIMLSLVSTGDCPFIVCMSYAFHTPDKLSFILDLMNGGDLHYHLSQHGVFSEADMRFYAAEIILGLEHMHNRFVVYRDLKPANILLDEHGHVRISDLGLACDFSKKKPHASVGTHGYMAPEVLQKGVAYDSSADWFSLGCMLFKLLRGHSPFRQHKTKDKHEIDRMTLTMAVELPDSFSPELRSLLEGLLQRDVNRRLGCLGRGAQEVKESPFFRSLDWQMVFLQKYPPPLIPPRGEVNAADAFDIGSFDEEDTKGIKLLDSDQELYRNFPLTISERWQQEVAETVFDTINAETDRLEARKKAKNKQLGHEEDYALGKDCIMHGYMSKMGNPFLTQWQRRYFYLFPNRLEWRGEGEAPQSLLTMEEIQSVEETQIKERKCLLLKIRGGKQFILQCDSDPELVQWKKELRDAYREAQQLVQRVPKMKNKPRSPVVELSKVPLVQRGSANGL
- assay-info: GRK2 binders displacing RNA aptamer, biochemical, validation, human GRK2, bead flow cytometry (AID 488806)
- run-parameters: bead-bound GRK2, FAM-aptamer displacement, at 10 µM, active compounds read high

molecule | result-unit | aptamer binding inhibition
Cc1cc(C(=O)NC(CC(C)C)C(=O)O)cc(C)c1[N+](=O)[O-] (stereo not given) | % | 4
CN(C)c1cc(NC(=O)CN2CCOCC2)c2ccccc2n1 | % | -2
CCN1CCN(C(=O)N[C@@H](C(=O)N[C@@H]2C(=O)N3[C@@H]2SC(C)(C)[C@@H]3C(=O)O)c2ccccc2)C(=O)C1=O | % | 2
COc1ccc(CCNC(=S)NC(=O)/C=C/c2ccc(C)cc2)cc1OC | % | 2
CCOc1cccc(N2C(=O)CC(N(CCc3ccc(OC)c(OC)c3)C(=O)CC)C2=O)c1 (stereo not given) | % | 2
Cn1c2ccccc2c2cc(/C=C(\NC(=O)c3ccccc3)C(=O)O)ccc21 | % | 3
O=c1n(CCCN2CCN(c3cccc(Cl)c3)CC2)nc2ccccn12 | % | 2
CC1(C)O[C@@H]2C[C@H]3[C@@H]4CCC5=CC(=O)C=C[C@]5(C)[C@@]4(F)[C@@H](O)C[C@]3(C)[C@]2(C(=O)CO)O1 | % | -1
COC(=O)c1cc(-c2ccc(C)o2)nc2ccccc12 | % | 5
CCn1cc(C(=O)O)c(=O)c2cc(F)c(N3CCNCC3)cc21 | % | 2
Cc1oc2c(CN3CCCC3)c(O)ccc2c(=O)c1-c1ccc(Cl)cc1 | % | 1
O=C1CCCN1CCCn1cnc2c([nH]c3ccc(F)cc32)c1=O | % | -1
C=CCNC(=S)N1CCc2c([nH]c3ccccc23)C1C (stereo not given) | % | -3
COc1cc2c(cc1OC)C(Cc1ccc(O)cc1)N(C)CC2 (stereo not given) | % | 4
C=CCc1ccc(OCC(O)COc2ccc(CC=C)cc2OC)c(OC)c1 | % | -1
CN(C)CCOc1ccccc1Cc1ccccc1 | % | 4
CC(C)[N+](C)(CCOC(=O)C1c2ccccc2Oc2ccccc21)C(C)C | % | 0
Oc1ccc(COCc2ccccc2)c2cccnc12 | % | 0
Cc1oc(/C=N/NC(=O)CC2(C)OCCO2)cc1Br | % | -3
O=C(CCN1CCC(c2ccccc2)C1)c1ccc2c(c1)OCCO2 (stereo not given) | % | 5
O=C1c2ccccc2C(=O)C1c1ccccc1 | % | 7
Cc1csc(CCc2nc(C)cs2)n1 | % | 1
C[C@@H]1C[C@H]2[C@@H]3C[C@H](F)C4=CC(=O)C=C[C@]4(C)[C@@]3(F)[C@@H](O)C[C@]2(C)[C@@]1(O)C(=O)CO | % | 2
O=C1CC(c2ccc(F)cc2)Cc2nc(NCC3CCCO3)ncc21 (stereo not given) | % | 3
CCN(CC)C1=C(Cl)C(=O)C(Cl)C12OCCO2 (stereo not given) | % | -5
O=C(/C=C/c1ccc(Cl)cc1)NCCc1ccccc1 | % | -1
CN(C)C(=O)C12CCC(C)(c3nc4ccccc4nc31)C2(C)C (stereo not given) | % | -1
O=C(c1ccc(O)cc1)c1ccc(O)cc1O | % | 3
Clc1ccccc1CN1CCc2sccc2C1 | % | -1
Cc1oc2c(C)c3oc(=O)c4c(c3cc2c1C)CCCC4 | % | 3
OCCN(CCO)c1ccc2ccccc2c1 | % | 2
CCOC(=O)Nc1ccc2c(c1)N(C(=O)CCN1CCOCC1)c1ccccc1S2 | % | 0
O=C(O)c1cc(-c2ccccc2)nc2ccccc12 | % | 4
CC[n+]1c(C)sc2cc(C)ccc21 | % | 6
CN(C)c1ccc(O)c2c1CC1CC3[C@@H](N(C)C)C(=O)C(C(N)=O)=C(O)[C@]3(O)C(=O)C1=C2O (stereo not given in full) | % | 29
O=C(Nc1ccccc1)OCC1CCCN2CCCCC12 (stereo not given) | % | -2
COc1ccccc1C(CC(=O)Nc1ccccc1C)c1ccc(OC(C)C)cc1 (stereo not given) | % | 4
CCCCC[C@H](O)/C=C/[C@@H]1[C@@H](CCCCCCC(=O)O)[C@@H](O)C[C@H]1O | % | 2
C[N+](C)(C)CCOP(=O)(O)OP(=O)([O-])OC[C@H]1O[C@@H](n2ccc(N)nc2=O)[C@H](O)[C@@H]1O | % | 2
Cc1cc(C)c2c(CCl)cc(=O)oc2c1 | % | -2
COc1ccc(NC(=S)NCCc2c[nH]c3ccccc23)cc1 | % | 1
COc1ccc(C)cc1S(=O)(=O)Nc1ccc(F)cc1 | % | 1
O=C(CCCCC(=O)NC1CCCC1)NC1CCCC1 | % | 0
CNS(=O)(=O)c1ccc(C)cc1 | % | 2
O=C(O)/C=C/c1ccc(O)c(O)c1 | % | 8
